Assignment: determine reported pIC50 for the given compounds.
methodNotes: Inhibition of trypsin-like activity of rabbit 20s proteasome beta2 subunit using Bz-Val-Gly-Arg-AMC as substrate after 1 hr by fluorescence assay
Set-up: species or system Oryctolagus cuniculus
pIC50: −log10 of the molar value.

Reported pIC50, compound Cc1ccc(OCC(=O)N(Cc2nc(-c3ccc(C)cc3)no2)C(C)C)cc1 : ____
< 4.00

Another compound to look at: CCCc1ccc(OCC(=O)N(Cc2nc(-c3cccnc3)no2)C(C)C)cc1
< 4.00

====

Organism: Oryctolagus cuniculus
methodNotes: Inhibition of chymotrypsin-like activity of rabbit 20s proteasome beta5 subunit using Suc-Leu-Leu-Val-Tyr-AMC as substrate at 10 uM after 1 hr by fluorescence assay
Calls of active or inactive are those of the source. No cut-off for these calls is given here.
readoutLabel: inhibition

>>> print(df.to_string())
                                     smiles   reading
0  CC(C)N(Cc1nc(-c2ccccc2)no1)C(=O)COc1ccc(-c2ccccc2)cc1  inactive
1  CC(C)N(Cc1nc(-c2ccccc2)no1)C(=O)COc1ccc(C(=O)O)cc1  inactive
2  CC(C)N(Cc1nc(-c2ccccc2)no1)C(=O)COc1ccc2cc(Br)ccc2c1  inactive
3  Cc1ccc(OCC(=O)N(CCc2nc(-c3ccccc3)no2)C(C)C)cc1  inactive
4  Cc1ccc(OCC(=O)N(Cc2nc(-c3ccc(C)cc3)no2)C(C)(C)C)cc1  inactive

Could you now consider this next compound?
Reported inhibition, compound Cc1cccc(OCC(=O)N(Cc2nc(-c3ccccc3)no2)C(C)C)c1 : ____
inactive
